- procedure details: Drug metabolism in Balb/c mouse blood assessed as concentration of parent compound at 1 mg/kg, po measured at 4 hrs by LC-MS/MS analysis
- Assay type: ADME, organism-based
- condition: Balb/c, blood, read-out: Ct
Listed molecules paired with reported concentration at 4 h
The response must be a number in nM with no trailing unit.

Here are 2 molecules together with their reported answers.
• N[C@]1(CO)CC[C@H](c2ccc3c(c2)CC[C@H](Cc2ccccc2)C3)C1 = 28
• N[C@]1(CO)CC[C@H](c2ccc3c(c2)CC[C@@H](Cc2ccccc2)C3)C1 = 12

Could you now consider this next molecule?
Input line: Requested field: concentration at 4 h. Item: "N[C@]1(CO)CC[C@H](c2ccc3c(c2)CC[C@@H](CCc2ccccc2)C3)C1"
Output line: 13
